# test system: α1B Human Adrenergic Receptor (Homo sapiens)
# Construct: The entire coding region of α1B (1563 bp); expressed in transfected cells
# Sequence (P35368 whole entry): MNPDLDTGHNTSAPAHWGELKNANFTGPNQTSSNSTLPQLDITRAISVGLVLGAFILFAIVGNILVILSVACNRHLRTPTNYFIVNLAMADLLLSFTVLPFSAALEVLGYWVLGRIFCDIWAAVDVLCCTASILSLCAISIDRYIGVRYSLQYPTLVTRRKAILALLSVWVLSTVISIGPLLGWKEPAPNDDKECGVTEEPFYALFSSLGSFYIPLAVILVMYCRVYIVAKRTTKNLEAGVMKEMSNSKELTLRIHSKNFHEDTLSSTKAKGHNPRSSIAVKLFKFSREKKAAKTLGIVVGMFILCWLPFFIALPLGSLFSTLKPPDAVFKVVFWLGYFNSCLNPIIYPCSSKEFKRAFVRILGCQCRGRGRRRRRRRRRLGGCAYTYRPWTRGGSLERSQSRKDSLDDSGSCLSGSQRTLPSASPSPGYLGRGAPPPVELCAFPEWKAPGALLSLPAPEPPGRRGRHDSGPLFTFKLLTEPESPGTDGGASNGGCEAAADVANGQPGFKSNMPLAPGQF
# procedure text: Radioligand binding, [3H]prazosin, cloned human α1B adrenergic receptor
# condition set: cloned human α1B receptor, LM(tk−) cell membranes, read-out: pKi alpha-1 1b (converted)
Where a name gives a salt, the structure may show the parent alone.
Classify on Ki using low = under 0.2 µM, mid = from 0.2 µM up to 0.4 µM, high = 0.4 µM and over

Worked examples follow.
- compound: "CCOC(=O)C1=C(CC(=O)NCCCN2CCC(c3ccccc3)(c3ccccc3)CC2)NC(C)=C(C(=O)OC)C1c1ccc([N+](=O)[O-])cc1 (stereo not shown) [Example 89, fumarate salt]"
  test system: "α1B Human Adrenergic Receptor (Homo sapiens)"
  class: "low"
- compound: "CCC1=C(C(=O)NC)C(c2ccc([N+](=O)[O-])cc2)C(C(=O)NCCCN2CCC(C(c3ccccc3)c3ccccc3)CC2)=C(CC)N1 (stereo not shown)"
  test system: "α1B Human Adrenergic Receptor (Homo sapiens)"
  class: "mid"
- compound: "CCC1=C(C(=O)NC)C(c2ccc([N+](=O)[O-])cc2)C(C(=O)NCCCN2CCC(OC)(c3ccccc3)CC2)=C(CC)N1 (stereo not shown)"
  test system: "α1B Human Adrenergic Receptor (Homo sapiens)"
  class: "high"

Then this compound:
QUERY: Place this compound in its band: CCC1=C(C(=O)NC)C(c2ccc([N+](=O)[O-])cc2)C(C(=O)NCCCN2CCC(C(N)=O)(c3ccccc3)CC2)=C(CC)N1 (stereo not shown)
RESULT: high

Provenance of the data: patent US6608086B2
